# assay.target: PRMT5/MEP50 (Homo sapiens)
# Sequence (O14744 whole entry): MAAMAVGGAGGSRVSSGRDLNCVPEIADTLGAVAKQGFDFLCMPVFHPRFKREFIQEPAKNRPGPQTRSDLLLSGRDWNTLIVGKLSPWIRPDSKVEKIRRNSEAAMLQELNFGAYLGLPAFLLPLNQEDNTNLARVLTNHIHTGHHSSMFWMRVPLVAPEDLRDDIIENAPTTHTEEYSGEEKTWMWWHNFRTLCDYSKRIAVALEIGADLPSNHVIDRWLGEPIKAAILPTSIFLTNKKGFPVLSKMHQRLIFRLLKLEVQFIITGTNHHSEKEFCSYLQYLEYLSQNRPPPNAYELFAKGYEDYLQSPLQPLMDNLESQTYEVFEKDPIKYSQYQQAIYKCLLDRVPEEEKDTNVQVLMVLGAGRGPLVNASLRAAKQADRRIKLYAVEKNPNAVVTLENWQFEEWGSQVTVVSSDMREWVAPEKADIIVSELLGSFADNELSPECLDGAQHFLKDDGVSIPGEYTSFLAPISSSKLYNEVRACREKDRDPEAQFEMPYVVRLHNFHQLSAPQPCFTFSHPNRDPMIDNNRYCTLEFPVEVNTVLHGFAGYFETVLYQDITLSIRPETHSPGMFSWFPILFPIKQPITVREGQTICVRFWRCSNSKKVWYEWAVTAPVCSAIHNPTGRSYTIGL
# Sequence (Q9BQA1 whole entry partner): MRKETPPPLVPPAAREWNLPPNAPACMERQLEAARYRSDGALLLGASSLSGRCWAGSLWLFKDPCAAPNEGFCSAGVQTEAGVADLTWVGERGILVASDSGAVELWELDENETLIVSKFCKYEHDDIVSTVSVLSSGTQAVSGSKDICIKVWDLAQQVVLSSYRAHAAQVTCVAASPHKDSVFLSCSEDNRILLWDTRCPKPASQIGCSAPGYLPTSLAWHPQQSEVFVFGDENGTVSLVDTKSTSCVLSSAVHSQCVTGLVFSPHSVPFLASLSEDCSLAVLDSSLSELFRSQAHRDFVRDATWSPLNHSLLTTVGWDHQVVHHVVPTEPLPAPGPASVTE
# procedure.summary: PRMT5/MEP50 enzyme inhibition assay, Assay 2 (384-well, MALDI mass spectrometry, SAM, histone H4 1-21 peptide)
# Format: biochemical
# cond: 1 μM SAM, 0.1 μM histone H4 1-21 peptide, 18-hour incubation at rt
# Procedure: Compounds were tested for inhibition of methyltransferase activity in 384-well plate assay format using mass spectrometry technology. In this enzyme inhibition assay, compounds were tested in a 11-dose IC50 mode with 3-serial dilution, in duplicate, starting at 1, 10, or 100 μM. […] Percent enzyme activity was calculated based on no inhibitor DMSO control as 100% activity. EC50 values were determined in GraphPad Prism 8 using the [inhibitor] vs. response—Variable slope (four parameters) function. […]
# maps each entry to its IC50

Some compounds with recorded IC50:
Nc1nc2cc(CC[C@@]34C[C@@H]3[C@@H](n3ccc5c(N)ncnc53)[C@H](O)[C@@H]4O)ccc2cc1Br	< 1 nM
C[C@]1(CCc2ccc3cc(Br)c(N)nc3c2)C[C@@H](c2ccc3c(N)ncnn23)[C@H](O)[C@@H]1O	< 1 nM

(Q) Sample C[C@]1(CCc2ccc3cc(Cl)c(N)nc3c2)C[C@@H](n2ccc3c(N)ncnc32)[C@H](O)[C@]1(C)O — what was its IC50?
(A) < 1 nM

(Q) Sample C[C@]1(CCc2ccc3cc(Cl)c(N)nc3c2)C[C@@H](n2ccc3c(N)ncnc32)[C@H](O)[C@@H]1O — what was its IC50?
(A) < 1 nM

(Q) Sample C[C@]1(CCc2ccc3cc(C(F)F)c(N)nc3c2)C[C@@H](n2ccc3c(N)ncnc32)[C@H](O)[C@@H]1O — what was its IC50?
(A) < 1 nM

(Q) Sample C[C@]1(CCc2cc(F)c3ccc(N)nc3c2)C[C@@H](n2ccc3c(N)ncc(F)c32)[C@H](O)[C@@H]1O — what was its IC50?
(A) < 1 nM

(Q) Sample C[C@]1(CCc2ccc3cc(Br)c(N)nc3c2)C[C@@H](n2ccc3c(N)ncc(F)c32)[C@H](O)[C@@H]1O — what was its IC50?
(A) < 1 nM

(Q) Sample C=C1[C@@H](n2ccc3c(N)ncnc32)[C@H](O)[C@H](O)[C@H]1CCc1ccc2cc(Br)c(Cl)nc2c1 — what was its IC50?
(A) > 100 nM

(Q) Sample Nc1ccc2ccc(CC[C@@]3(F)C[C@@H](n4ccc5c(N)ncnc54)[C@H](O)[C@@H]3O)cc2n1 — what was its IC50?
(A) < 1 nM

(Q) Sample C[C@@H]1[C@H](CCc2ccc3ccc(N)nc3c2)[C@@H](O)[C@@H](O)[C@@H]1n1ccc2c(N)ncnc21 — what was its IC50?
(A) 1 to 100 nM
